# Subject of test: human CYP11B2 (Homo sapiens)
# Procedure text: G-402 cellular enzyme assay, human CYP11B2 (aldosterone release, HTRF)
# Measurement context: G-402 cells, 1 μM Deoxycorticosterone
pEC50: −log10 of the molar value.
Measure: pEC50

Take a look at these entries with their results.
CC[C@@H]1c2cc(Cl)ccc2C(=O)N1c1cncc2c1CCC[C@H]2NS(C)(=O)=O (single isomer, unassigned) = 6.79
CC1CN(c2cncc(F)c2)C(=O)c2ccc(Cl)cc21 (centres unmarked) = 6.29
CC1(C)c2cc(Cl)ccc2C(=O)N1c1cncc(CNC(=O)c2ccccn2)c1 = 8.18
CC1c2cc(Cl)ccc2C(=O)N1c1cccnc1 (centres unmarked) = 6.91
Nc1ccn(Cc2cncc(N3CCc4cc(Cl)ccc4C3=O)c2)n1 = 7.47
CCC(=O)NCc1cncc(N2C(=O)c3ccc(F)cc3C2(C)C)c1 = 6.55

(P) CCC(=O)N[C@@H]1CCCc2c1cncc2N1C(=O)c2cc(Cl)ccc2[C@H]1CC (single isomer, unassigned)
(Q) CCC(=O)N1CCC(Oc2cncc(N3C(=O)c4ccc(Cl)cc4C3(C)C)c2)C1 (centres unmarked)
(R) CC[C@H]1c2cc(Cl)ccc2C(=O)N1c1cncc2c1CCC[C@H]2NC(C)=O (single isomer, unassigned)
(S) O=C1c2ccc(Cl)cc2CCN1c1cncc(Cc2cccc(F)c2F)c1
Write the entries in order, lowest recorded pEC50 first. Answer format: list of labels, ordered as asked.
R, P, S, Q
(R: 7.01, P: 7.32, S: 7.73, Q: 8.08)

(P) CC(=O)N[C@@H]1CCCc2c1cncc2N1C(=O)c2ccc(Cl)cc2[C@@H]1C (single isomer, unassigned)
(Q) O=C1c2ccc(Cl)cc2CCN1c1cncc(NCc2ccc(F)cc2)c1
(R) CC1(C)c2cc(Cl)ccc2C(=O)N1c1cncc(CNC(=O)c2cccnc2Cl)c1
Write the entries in order, lowest recorded pEC50 first. Answer format: list of labels, ordered as asked.
Q, R, P

(I) O=C1c2ccc(Cl)cc2CCN1c1cncc(CN2CC3(COC3)C2)c1
(II) C[C@H](O)c1cncc(N2CCc3cc(Cl)ccc3C2=O)c1
Between I and II , which one has the lower reported pEC50 value? Give the label of your selection.
II

(A) Cc1n[nH]cc1-c1cncc(N2CCc3cc(Cl)ccc3C2=O)c1
(B) COc1cncc(N2CCc3cc(Cl)ccc3C2=O)c1
Sort A and B by pEC50 descending and give the first. Give the label of your selection.
A

====

# Subject of test: human CYP11B2 (Homo sapiens)
# Sequence (P19099 25-503): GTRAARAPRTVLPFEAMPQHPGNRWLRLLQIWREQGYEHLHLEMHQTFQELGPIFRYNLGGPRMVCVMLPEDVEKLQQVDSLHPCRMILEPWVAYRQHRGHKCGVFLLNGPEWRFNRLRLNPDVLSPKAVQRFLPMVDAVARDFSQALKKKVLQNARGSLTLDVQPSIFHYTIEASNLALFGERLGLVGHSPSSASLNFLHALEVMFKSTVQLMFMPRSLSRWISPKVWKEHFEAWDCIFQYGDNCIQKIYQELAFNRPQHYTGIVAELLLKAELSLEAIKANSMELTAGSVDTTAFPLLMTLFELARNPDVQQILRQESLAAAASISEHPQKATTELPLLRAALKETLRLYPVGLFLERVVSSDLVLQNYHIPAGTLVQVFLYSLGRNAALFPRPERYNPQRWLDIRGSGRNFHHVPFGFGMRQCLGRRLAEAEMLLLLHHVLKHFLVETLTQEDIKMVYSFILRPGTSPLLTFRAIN
# Procedure text: G-402 cellular enzyme assay, human CYP11B2 (aldosterone release, HTRF)
# Measurement context: G-402 cells, 1 μM Deoxycorticosterone
Measure: EC50 (nM)

Take a look at these entries with their results.
CN1CCN(Cc2cncc(N3CCc4cc(Cl)ccc4C3=O)c2)C1=O = 209
Cn1ncc2c(N3CCc4cc(Cl)ccc4C3=O)cncc21 = 75.3

(P) O=C1c2ccc(Cl)cc2CN1c1cncc(N2CC[C@@H](O)C2)c1
(Q) O=C(Cc1cncc(N2CCc3cc(Cl)ccc3C2=O)c1)N1CCOCC1
(R) CCS(=O)(=O)N1CCCC(c2cncc(N3C(=O)c4ccc(Cl)cc4C3(C)C)n2)C1 (stereo not drawn)
(S) CCOc1ccc2c(n1)C(C)(C)N(c1cncc(F)c1)C2=O
Could you please sort these 4 entries by EC50 from high to low? Answer format: list of labels, ordered as asked.
S, Q, P, R
(S: 787 nM, Q: 491 nM, P: 16.2 nM, R: 2.8 nM)

(P) O=C1c2ccc(Cl)cc2CCN1c1cncc(Cn2ccnc2Cl)c1
(Q) CN1CCN(Cc2cncc(N3C(=O)c4ccc(Cl)cc4C3(C)C)c2)C1=O
Sort P and Q by EC50 descending and give the first. Give the label of your selection.
Q

====

# Subject of test: human CYP11B1 (Homo sapiens)
# Construct: expressed in transfected cells
# Sequence (P15538 25-503): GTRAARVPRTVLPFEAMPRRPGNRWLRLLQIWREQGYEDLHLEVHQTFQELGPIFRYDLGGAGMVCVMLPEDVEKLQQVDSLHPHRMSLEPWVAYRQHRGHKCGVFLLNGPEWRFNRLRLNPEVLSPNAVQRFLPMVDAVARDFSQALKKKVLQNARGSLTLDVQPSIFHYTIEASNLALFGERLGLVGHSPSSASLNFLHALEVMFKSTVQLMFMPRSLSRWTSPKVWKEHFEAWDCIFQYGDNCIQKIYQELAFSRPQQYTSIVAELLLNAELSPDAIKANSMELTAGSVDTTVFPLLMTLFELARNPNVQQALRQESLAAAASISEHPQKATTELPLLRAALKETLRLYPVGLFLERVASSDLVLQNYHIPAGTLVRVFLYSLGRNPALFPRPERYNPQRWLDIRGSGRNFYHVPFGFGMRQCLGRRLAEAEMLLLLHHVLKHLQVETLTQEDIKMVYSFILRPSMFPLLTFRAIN
# Procedure text: G-402 cellular enzyme assay, human CYP11B1 (cortisol release, HTRF)
# Format: cell-based
# Measurement context: G-402 cells, 1 μM Deoxycortisol
# Text: Herein we identified the use of the G-402 cell line as a host cell to ectopically express (transiently or stably) enzymes of the CYP11 family. […] Importantly the identified cell line G-402 expresses co-factors (adrenodoxin and adrenodoxin reductase) important for the activity of the CYP11 family and no relevant enzyme activity of the CYP11 family (in comparison to H295R cells) was detected in these cells. […]
Measure: EC50 (nM)

CC(C)c1nccn1Cc1cncc(N2Cc3cc(Cl)ccc3C2=O)c1 = 1350

(P) O=C1c2ccc(Cl)cc2CCN1c1cncc(COCC(F)(F)F)c1
(Q) Cc1nccn1Cc1cncc(N2CCc3cc(Cl)ccc3C2=O)c1
(R) CC[C@H]1c2cc(Cl)ccc2C(=O)N1c1cncc2c1CC[C@@H]2NC(C)=O (single isomer, unassigned)
Could you please sort these 3 entries by EC50 from high to low? Answer format: list of labels, ordered as asked.
R, Q, P
(R: 2000 nM, Q: 981 nM, P: 473 nM)

====

# Subject of test: human CYP11B2 (Homo sapiens)
# Procedure text: G-402 cellular enzyme assay, human CYP11B2 (aldosterone release, HTRF)
# Measurement context: G-402 cells, 1 μM Deoxycorticosterone
pEC50: −log10 of the molar value.
Measure: pEC50

CC(=O)NC1CCc2c1cncc2N1CCc2cc(Cl)ccc2C1=O (single isomer, unassigned) [Example 333] = 7.02
C[C@@H](O)c1cncc(N2CCc3cc(Cl)ccc3C2=O)c1 [Example 14] = 7.26
CC[C@H]1c2cc(Cl)ccc2C(=O)N1c1cncc2c1CC[C@@H]2NS(C)(=O)=O (single isomer, unassigned) [Example 370] = 6.71
O=C1c2ccc(Cl)cc2CCN1c1cncc2c1CCCC2O (centres unmarked) [Example 28] = 6.99
C[C@H]1Cc2cc(Cl)ccc2C(=O)N1c1cccnc1 [Example 92] = 6.57

(I) CCC1c2ccc(Cl)cc2C(=O)N1c1cncc(CNS(C)(=O)=O)c1 (single isomer, unassigned) [Example 405]
(II) O=C1c2ccc(Cl)cc2CCN1c1cncc(CNc2cc[nH]n2)c1 [Example 262]
Between I and II , which one has the lower reported pEC50 value? Give the label of your selection.
I

====

# Subject of test: human CYP11B2 (Homo sapiens)
# Sequence (P19099 25-503): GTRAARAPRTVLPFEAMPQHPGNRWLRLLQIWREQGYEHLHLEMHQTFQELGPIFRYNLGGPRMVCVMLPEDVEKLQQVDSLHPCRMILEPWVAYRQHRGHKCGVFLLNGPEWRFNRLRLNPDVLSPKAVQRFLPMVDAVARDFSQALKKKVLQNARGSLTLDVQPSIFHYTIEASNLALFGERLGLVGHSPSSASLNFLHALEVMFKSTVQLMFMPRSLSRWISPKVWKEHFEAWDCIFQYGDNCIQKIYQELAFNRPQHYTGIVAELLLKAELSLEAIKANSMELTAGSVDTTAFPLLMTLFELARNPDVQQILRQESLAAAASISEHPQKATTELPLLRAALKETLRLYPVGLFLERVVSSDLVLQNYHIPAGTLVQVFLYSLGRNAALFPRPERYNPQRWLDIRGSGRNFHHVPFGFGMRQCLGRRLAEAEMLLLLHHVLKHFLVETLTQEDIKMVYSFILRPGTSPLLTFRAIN
# Procedure text: G-402 cellular enzyme assay, human CYP11B2 (aldosterone release, HTRF)
# Measurement context: G-402 cells, 1 μM Deoxycorticosterone
pEC50: −log10 of the molar value.
Measure: pEC50

Take a look at these entries with their results.
Cc1ncn(C)c1-c1cncc(N2CCc3cc(Cl)ccc3C2=O)c1 = 8.33
O=C1c2ccc(Cl)cc2C2(CC2)N1c1cccnc1 = 6.88
CCC(=O)NC1CCCc2c1cncc2N1CCc2cc(Cl)ccc2C1=O (single isomer, unassigned) [Example 328] = 6.76

(a) O=C(NC1CC1)c1cncc(N2CCc3cc(Cl)ccc3C2=O)c1
(b) COC(C)c1cncc(N2CCc3cc(Cl)ccc3C2=O)c1 (centres unmarked)
(c) Cn1cnc(CNc2cncc(N3CCc4cc(Cl)ccc4C3=O)c2)c1
(d) CCC1c2cc(Cl)ccc2C(=O)N1c1cncc(C(C)O)c1 (centres unmarked)
(e) Cn1ccnc1-c1cncc(N2CCc3cc(Cl)ccc3C2=O)c1
Could you please sort these 5 entries by pEC50 from high to low? Answer format: list of labels, ordered as asked.
b, d, c, e, a
(b: 7.71, d: 7.18, c: 6.58, e: 5.73, a: 5.23)
